Reference for the values: ChEMBL document CHEMBL4513216

Below, each entry is listed alongside its reported INHIBITION.
system: Plasmodium berghei; experiment: Screen against P. berghei liver stage (PbLuc), transformed with Luciferase, at 10uM; assay type: functional, HepG2; settings: tested at 10 uM
The whole screen tested about 69,000 compounds, of which about 8,600 (12%) showed an effect of 50% or more. The full list was thinned out, with strong results kept by preference.
Lab book: enter the figure in %, no units written.

Worked cases, answers included:
1. O=C(CCc1ccc(Br)cc1)NCCc1nnc[nH]1
-7.12
2. CC(C)Cc1cc(NC(=O)c2n[nH]c3ccccc23)n(C)n1
56.6
3. Cc1c(C(C)NC2CCCC2)cnn1-c1ccc(F)cc1F (centres undefined)
31.9

IN: Tell us which INHIBITION value is on record for Cc1ccsc1CN1CCn2c(COc3cccnc3)cnc2C1C (centres undefined)
OUT: 65.7

IN: Tell us which INHIBITION value is on record for O=C(NCCc1nnc[nH]1)Nc1cccc(SC(F)F)c1
OUT: 51.7

IN: Tell us which INHIBITION value is on record for CC1c2ncc(COc3cccnc3)n2CCN1Cc1cnn(C)c1 (centres undefined)
OUT: 34

----------
tested on: Plasmodium berghei; test: Screen against P. berghei liver stage (PbLuc), transformed with Luciferase, at 10uM; assay type: functional, HepG2; details: tested at 10 uM
The whole screen tested about 69,000 compounds, of which about 8,600 (12%) showed an effect of 50% or more. What follows is part of a selection rich in strong results, with near analogues and random picks from the rest.
Output Condition met for INHIBITION not less than 30%; output Condition not met otherwise.

Here are 5 molecules together with their reported answers.
1. c1ccc(-n2ccc(CN3CCCC(Cn4cncn4)C3)n2)cc1 (stereo not drawn)
Condition not met
2. Cc1oc(C)c(C(=O)NCc2cccc(C(N)=O)c2)c1C
Condition not met
3. Cc1noc([C@@H]2C[C@H](NC(=O)NC(C)C)CN2C)n1
Condition met
4. COCCN1C2(CCN(C(=O)c3cccs3)C2)c2ccccc2S1(=O)=O (stereo not drawn)
Condition not met
5. O=C(NC1CC1)[C@@H]1C[C@@H]2CCN(Cc3ccoc3)C[C@@H]2O1
Condition met

IN: Has O=C(C1CNCCN1C(=O)CCc1cccnc1)N1CCOCC1 (stereo not drawn) a recorded INHIBITION greater than or equal to 30%?
OUT: Condition met

IN: Has Cc1nonc1NC(=O)C1SCCc2ccccc21 (stereo not drawn) a recorded INHIBITION greater than or equal to 30%?
OUT: Condition not met

IN: Has O=C(NC1CCCC1)[C@@H]1C[C@@H]2CCN(Cc3ccoc3)C[C@H]2O1 a recorded INHIBITION greater than or equal to 30%?
OUT: Condition met

IN: Has COCCNC(=O)[C@@]12CCO[C@@H]1CCN(Cc1scnc1C)C2 a recorded INHIBITION greater than or equal to 30%?
OUT: Condition not met

IN: Has CCn1nc(C)c(CN(CCCOC)Cc2ccccn2)c1C a recorded INHIBITION greater than or equal to 30%?
OUT: Condition met

IN: Has CO[C@H]1CCN(Cc2cnn(C)c2)[C@@H]2CN(Cc3cccnc3)C[C@H]12 a recorded INHIBITION greater than or equal to 30%?
OUT: Condition not met

IN: Has Cc1n[nH]c(C)c1-c1c(C#N)c(N)nc2c1CCc1[nH]ccc1-2 a recorded INHIBITION greater than or equal to 30%?
OUT: Condition met

IN: Has O=C(NCc1ccco1)[C@H]1C[C@@H]2CCN(c3cccc(F)c3)C[C@H]2O1 a recorded INHIBITION greater than or equal to 30%?
OUT: Condition met

----------
tested on: Plasmodium berghei; assay: Screen against P. berghei liver stage (PbLuc), transformed with Luciferase, at 10uM; type: functional, HepG2; details: tested at 10 uM
The whole screen tested about 69,000 compounds, of which about 8,600 (12%) showed an effect of 50% or more. The full list was thinned out, with strong results kept by preference.
Below, each entry is listed alongside its reported INHIBITION.
Lab book: enter the figure in %, no units written.

1) Cc1nn(C)c(N2CCOCC2)c1CNCc1ccnc(N(C)C)c1
38.7
2) COCCN(Cc1ccc(C)cc1)Cc1nccn1C
43.4
3) COCCN(Cc1ccc(C)cc1)Cc1c[nH]cn1
63.8
4) Cc1nn(C)c(N2CCOCC2)c1CNCc1ccc(N(C)C)nc1
51.1
5) c1cc(CN(CCCn2ccnc2)Cc2ccoc2)ccn1
24.7

IN: # lookup: Plasmodium berghei INHIBITION, key = Cc1nn(C)c(N2CCOCC2)c1CNCc1cccnc1
OUT: 32.2

----------
test system: Plasmodium berghei; assay: Screen against P. berghei liver stage (PbLuc), transformed with Luciferase, at 10uM; type: functional, HepG2; conditions: tested at 10 uM
Out of some 69,000 compounds screened, about 8,600 (12%) showed an effect of 50% or more. This is one part of a sample in which strong results are shown more often than they occur.
Decision: INHIBITION beneath 20% gives 1 (yes); INHIBITION meeting or exceeding 20% gives 0 (no).

Here are 2 molecules together with their reported answers.
1) Cc1cc(C)n(Cc2ccc(-c3noc(C(=O)NC[C@@H](C)O)n3)cc2)n1
1 (yes)
2) Cc1cccnc1CN(C)c1ncnc2[nH]ccc12
1 (yes)

IN: Dear colleague, could you confirm whether INHIBITION of CC(=O)N1CCOCC(Cc2ccc3c(ccn3C)c2)C1 (configuration not stated) falls below 20%? Thanks.
OUT: 1 (yes)

IN: Dear colleague, could you confirm whether INHIBITION of CCOc1ccccc1-n1c(C2CCC2)n[nH]c1=O falls below 20%? Thanks.
OUT: 1 (yes)

IN: Dear colleague, could you confirm whether INHIBITION of Cc1nn(C)c(C)c1NC(=O)CN1CCN(c2nccs2)C(C)C1 (configuration not stated) falls below 20%? Thanks.
OUT: 0 (no)

IN: Dear colleague, could you confirm whether INHIBITION of N[C@H]1c2ccccc2C[C@@H]1NC(=O)C1CCN(Cc2ccco2)CC1 falls below 20%? Thanks.
OUT: 1 (yes)

----------
Below, each entry is listed alongside its reported INHIBITION.
tested on: Plasmodium berghei; test: Screen against P. berghei liver stage (PbLuc), transformed with Luciferase, at 10uM; assay type: functional, HepG2; details: tested at 10 uM
Hit rate of the full screen: of about 69,000 compounds, about 8,600 (12%) showed an effect of 50% or more. Many of the other results were omitted from the sample, so strong results are more common in it than they were.
Lab book: enter the figure in %, no units written.

Worked cases, answers included:
1. O=C(NC1CCCN(Cc2c(F)cccc2F)C1)c1cnccn1 (stereo unspecified)
23.7
2. Cc1noc(Cl)c1CCC(=O)N1CCN(c2ccccc2)CC1
26.5

// below: INHIBITION requested for another compound
IN: # lookup: Plasmodium berghei INHIBITION, key = CCCS(=O)(=O)N1C[C@@H]2C[C@H](C(=O)N3CCN(C)CC3)[C@H](C1)O2
OUT: 21.1

----------
test system: Plasmodium berghei; assay: Screen against P. berghei liver stage (PbLuc), transformed with Luciferase, at 10uM; type: functional, HepG2; details: tested at 10 uM
About 8,600 (12%) of roughly 69,000 compounds showed an effect of 50% or more. The sample as a whole holds a higher share of strong results than the screen did.
Below, each entry is listed alongside its reported INHIBITION.
Hi, when you answer, please include the unit after the number. Thanks!

Worked cases, answers included:
1. O=C(c1cc2cc(I)ccc2[nH]1)N1CCC(Nc2cccnn2)CC1
9.54%
2. CCOc1ccc(CC(=O)N2CCN(c3nccn3CC)CC2)cc1
49.1%
3. CC1=N[C@@]2(CC[C@@H]3CN(Cc4ccccc4C)C[C@@H]32)C(=O)N1CC1CC1
28.4%
4. COc1ccccc1CN1C[C@@H]2CN(C(C)=O)CCO[C@@H]2C1
0.453%
5. CC(C)OCCCNC(=O)CS(=O)(=O)Cc1cccc(Cl)c1
-63.3%

IN: Tell us which INHIBITION value is on record for O=C(NCC1COC2(CCOCC2)O1)c1csc(-c2cccc(Cl)c2)n1 (stereo unspecified)
OUT: 15.5%

----------
tested on: Plasmodium berghei; test: Screen against P. berghei liver stage (PbLuc), transformed with Luciferase, at 10uM; type: functional, HepG2; conditions: tested at 10 uM
The whole screen tested about 69,000 compounds, of which about 8,600 (12%) showed an effect of 50% or more. The sample as a whole holds a higher share of strong results than the screen did.
test.readout: INHIBITION (%)
Lab book: enter the figure in %, no units written.

Worked cases, answers included:
1) FC1(F)CCN(Cc2ccccn2)CC12CCN(c1cnccn1)C2 (stereo unspecified)
34
2) CN1CC[C@]2(CN(CC3CCOCC3)C[C@H]2c2ccccc2)C1=O
43.4
3) FC1(F)CCN(Cc2cccnc2)CC12CCN(c1ccccc1)C2 (stereo unspecified)
92.8

IN: # lookup: Plasmodium berghei INHIBITION, key = FC1(F)CCN(Cc2ccccn2)CC12CCN(c1cccnc1)C2 (stereo unspecified)
OUT: 85.9

IN: # lookup: Plasmodium berghei INHIBITION, key = CN(C)C(=O)CN1CC[C@]2(CN(CC3CC3)C[C@H]2c2ccccc2)C1=O
OUT: 26.5

IN: # lookup: Plasmodium berghei INHIBITION, key = Cn1cc(CN2CCC(F)(F)C3(CCN(c4cccnc4)C3)C2)cn1 (stereo unspecified)
OUT: 15.4

IN: # lookup: Plasmodium berghei INHIBITION, key = FC1(F)CCN(Cc2ccccn2)CC12CCN(c1ncccn1)C2 (stereo unspecified)
OUT: 47.5

IN: # lookup: Plasmodium berghei INHIBITION, key = FC1(F)CCN(Cc2ccncc2)CC12CCN(c1cnccn1)C2 (stereo unspecified)
OUT: -13.2

IN: # lookup: Plasmodium berghei INHIBITION, key = FC1(F)CCN(Cc2ccncc2)CC12CCN(Cc1ccccn1)C2 (stereo unspecified)
OUT: 48.9

IN: # lookup: Plasmodium berghei INHIBITION, key = FC1(F)CCN(c2ccccc2)CC12CCN(c1ncccn1)C2 (stereo unspecified)
OUT: -15.3

IN: # lookup: Plasmodium berghei INHIBITION, key = OCCN1CCC(F)(F)C2(CCN(c3cccnc3)C2)C1 (stereo unspecified)
OUT: 60.2
